Tested on: RXF 393 renal
Assay: NCI-60 one-dose screen, 48 h (100 = growth as untreated, 0 = no growth, -100 = all killed)
Conditions: 10 µM
The panel holds about 83,000 compounds, 20% with a hit somewhere; the sample as a whole holds those more often.
Hi! Could you tag entries with growth below 40% as 1.0, and those at or above as 0.0? Much appreciated.

Worked set:
- MOLECULE: "O=C(O)C(SC(C(=O)O)c1ccccc1)c1ccccc1 (stereo not given)"
  ASSIGNED LABEL: 0.0
- MOLECULE: "CC(C)=CCc1cc(O)cc2c1OC(C=C(C)C)C1=C2C(=O)C2=C(NCCS2(=O)=O)C1=O (stereo not given)"
  ASSIGNED LABEL: 1.0
- MOLECULE: "O=C(Nc1ccc(OS(=O)(=O)c2ccccc2)cc1)C12CC3CC(CC(C3)C1)C2"
  ASSIGNED LABEL: 1.0
- MOLECULE: "O=C1/C(=C\\c2ccc(Br)cc2)CN(C(=O)c2ccccc2F)C/C1=C\\c1ccc(Br)cc1"
  ASSIGNED LABEL: 1.0
- MOLECULE: "COc1ccc2c(c1)N(CCO)C1=C(C(=O)OC1)C2c1ccc(OC)c(OC)c1 (stereo not given)"
  ASSIGNED LABEL: 1.0

Request: Check if growth falls below 40% for Nc1ncnc2[nH]c(=O)[nH]c12 .
Result: 1.0

Request: Dear colleague, could you confirm whether growth of O=S(=O)(Nc1ccccn1)c1ccc(N=Nc2ccc(O)c3ncccc23)cc1 falls below 40%? Thanks.
Result: 1.0

Request: Lab note: confirm whether the reported growth for this molecule is below 40%, equality not counting. molecule: COc1ccc(-c2nn(-c3cccc(NC(=O)Nc4cc(C(F)(F)F)cc(C(F)(F)F)c4)c3)cc2-c2ccncc2)cc1Cl
Result: 1.0

Request: Hello, I'm reviewing records and need to know if growth of COc1ccc2c(c1OC)O/C(=C\c1ncc([N+](=O)[O-])n1C)C2=O is below 40%. Could you check?
Result: 1.0

Request: Take the molecule CN(Cc1ccccc1)Cc1ccc([N+](=O)[O-])cc1I and say whether its growth is less than 40%.
Result: 0.0

Request: I'd appreciate it if you could check whether COc1ccc(C(=O)/C=C/c2cc(-c3cc(OC)c(OC)c(OC)c3)n[nH]2)cc1 has growth smaller than 40%.
Result: 1.0

Request: Item NC(=O)CC1(c2ccccc2)CCCCC1 : growth beneath 40%, strictly?
Result: 0.0

====

Listed here: items and their measured growth.
System: NCI-H23 lung
Experiment: NCI-60 one-dose screen, 48 h (100 = growth as untreated, 0 = no growth, -100 = all killed)
Settings: 10 µM
The panel holds about 83,000 compounds, 20% with a hit somewhere; the sample as a whole holds those more often. The source made the active and inactive calls. Rule for the calls: active = growth percent below 10; inactive = the rest.

Example cases with answers are listed next.
- MOLECULE: "N=C(N)c1ccc(-c2ccc(-c3cccs3)s2)cc1"
  MEASUREMENT NAME: "growth"
  RESULT: "83.8% (inactive)"
- MOLECULE: "Fc1cc(C(F)(F)F)ccc1-c1cncnc1NC1CCCCCC1"
  MEASUREMENT NAME: "growth"
  RESULT: "92.6% (inactive)"
- MOLECULE: "CS(=O)(=O)Nc1cccc(-c2cc(-c3ccccc3Cl)c(C#N)c(N)n2)c1"
  MEASUREMENT NAME: "growth"
  RESULT: "38.7% (inactive)"
- MOLECULE: "O=C(CC(c1ccccc1)N1CCOCC1)c1ccccc1 (stereo unspecified)"
  MEASUREMENT NAME: "growth"
  RESULT: "83.3% (inactive)"
- MOLECULE: "NC1=NC(=O)C(c2ccccc2)(c2ccccc2)S1"
  MEASUREMENT NAME: "growth"
  RESULT: "106% (inactive)"

Request: Fill in the recorded growth for this molecule, with NCI-H23 lung as test system: ClC(Cl)(Cl)c1nc2nccnc2[nH]1
Result: 108% (inactive)

====

System: M14 melanoma
Assay: NCI-60 one-dose screen, 48 h
Conditions: 10 µM
Method: Growth inhibition of the M14 human tumor cell line is measured as a screen for anti-cancer activity. Cells are grown in 96 well plates and exposed to the test compound for 48 hours. Compounds are tested at a single concentration, which is 10^-5 M for most compounds. The reported endpoint is percent growth (GI% or GIPRCNT), where numbers from 0 - 100% represent growth inhibition, and numbers from -100% - 0 represent cell death. For example, a value of 40 represents 60% growth inhibition. […]
Compounds without any hit were thinned out: in the full panel of roughly 83,000, 20% have a hit. Active and inactive are the calls of the source. Rule for the calls: active = growth percent below 10; inactive = the rest.
The reply should be one of these categories: active, inactive

- MOLECULE: "CCCC1(CC(=O)O)OCCc2c1[nH]c1ccccc21 (stereo unspecified)"
  ASSIGNED LABEL: "inactive"
- MOLECULE: "CCOCC(=O)C(C#N)c1ccc(Cl)c(Cl)c1 (stereo unspecified)"
  ASSIGNED LABEL: "inactive"
- MOLECULE: "COc1cc(-c2cc(/C=C3\\C(=O)Nc4cc(Cl)ccc43)[nH]n2)cc(OC)c1OC"
  ASSIGNED LABEL: "inactive"

Request: Which outcome was entered for the molecule COc1ccc(CN2CCC(N3CCCC3=O)c3cc(Cl)ccc32)cc1 (stereo unspecified) in this test?
Result: inactive

Request: // return assay outcome for COc1ccc(NC2=NC(C)(CO)CS2)cc1 (stereo unspecified)
Result: inactive

Request: # outcome recorded in this test, key = O=C1C(c2ccccc2)C2C=CC(C2)N1O (stereo unspecified)
Result: inactive

Request: Would you mind telling me which call this test gave FC(F)(F)c1ccc(-c2cnc(-n3cc(COCCN4CCCCC4)nn3)nc2NC2CCCCCC2)cc1 ?
Result: active

Request: Identify the outcome logged in this assay for the molecule shown: Clc1cc2c(c(CSc3nc4ccccc4n4cccc34)c1)OCOC2
Result: inactive

Request: Can you look up the reported call for COc1cc(-c2cc(/C=C3\C(=O)Nc4ccc(Cl)cc43)[nH]n2)cc(OC)c1OC for me?
Result: active

Request: Given Nc1ccc2c(c1)Cc1cc(N)c(Br)cc1-2 , state the outcome it received in this test.
Result: inactive

Request: Please let me know the test result on file for Nc1c(C(=O)Nc2cccc3ccccc23)sc2nc3c(cc12)C(=O)CCC3 .
Result: inactive

====

Tested on: TK-10 renal
Test: NCI-60 one-dose screen, 48 h (100 = growth as untreated, 0 = no growth, -100 = all killed)
Details: 10 µM
Compounds without any hit were thinned out: in the full panel of roughly 83,000, 20% have a hit.
Label YES for high-side growth (at or above 90%) and NO for low-side growth (below it).

Request: Identify whether the reported growth of the following compound is 90% or greater: CCN(CCCCCCCCCCN1CC(=O)N(CCCCCCCCCCN(CC)Cc2ccccc2OC)CC1=O)Cc1ccccc1OC
Result: NO

Request: Check this compound for growth at or above 90%: CCOC1(OCC)OC(c2ccccc2)=C(C#N)C(/C=C\c2ccccc2)C1(OCC)OCC (configuration not stated)
Result: YES

Request: Please tell me: is the compound O=C(Nc1cccc(Cl)c1)Nc1nccs1 at or over 90% in terms of growth?
Result: YES

Request: Is growth at least 90%? Consider COc1ccc2c(c1)C(=O)c1c-2c(OCCN(C)C)nc2ccccc12
Result: NO

Request: Tell me whether growth is at least 90% here: Clc1cc2c(c(CSc3nc4ccccc4n4cccc34)c1)OCOC2
Result: NO

Request: Item CC1(C)Cc2c(sc3ncn4nc(-c5ccc(O)cc5)nc4c23)CO1 with growth of 90% or above?
Result: NO

Request: Hello, I need to know if CCCCCCCCCCCCCC[n+]1ccc(C(N)=O)cc1 has measured growth not below 90%. Thanks!
Result: NO

Request: Could you verify whether the entry CC(=O)n1c(-c2ccc(Cl)c(Cl)c2)cn(-c2ccc(Cl)cc2)c1=O shows growth of no less than 90%?
Result: NO

Request: // inclusive: growth at least 90%? input: COc1ccc(Cl)cc1-n1nnc(-c2nc3ccccc3[nH]2)c1N
Result: NO

Request: Hello, I need to know if COc1cc(Cc2cc(-c3ccc(Cl)cc3)n[nH]c2=O)ccc1O has measured growth not below 90%. Thanks!
Result: YES

Request: Is it the case that COc1ccc(/C=C/C(=O)Nc2ccc(-c3nc4ccc(OC)cc4s3)cc2)cc1 has growth reaching or exceeding 90%?
Result: YES

Request: Item COc1cc(Nc2ccnc(NCCCNc3ccnc4cc(Cl)ccc34)n2)cc(OC)c1 with growth of 90% or above?
Result: NO

Request: Reported growth at or above 90%? O=C(Nc1nc2ccccc2s1)Nc1ccc([N+](=O)[O-])cc1Cl
Result: NO

Request: Does growth meet or surpass 90% for COc1ccc([N+](=O)[O-])c(C(=O)O)c1 ?
Result: YES

Request: Could you tell me if the measured growth of Cc1ccc(CC#N)cc1C reaches 90% or more?
Result: YES

Request: Given COc1ccc(-c2nnc(-c3c(-c4ccccc4)nc4ncccn34)o2)cc1OC , state whether its growth is at least 90%.
Result: YES

Request: Say whether CC(=O)c1cc(Br)ccc1O shows growth of 90% or more.
Result: YES

Request: Form field: growth at least 90%? Entry: O=[N+]([O-])c1ccc(Oc2cccnc2)c([N+](=O)[O-])c1
Result: NO

Request: Form field: growth at least 90%? Entry: COc1cc(-c2cc(C(=O)N3CCN(C(=O)c4ccccc4NCc4cccs4)CC3)nc3cc(-c4ccccc4)nn23)cc(OC)c1OC
Result: NO

Request: Decide: growth of O=C(Nc1cccc(-n2cc(-c3ccncc3)c(-c3ccc(O)c(Cl)c3)n2)c1)c1cccc(C(F)(F)F)c1 >= 90%?
Result: NO

Request: Check this compound for growth at or above 90%: CNc1ccc(CSc2ccc(C)cc2)cc1
Result: NO
